This document collects EC50 values reported for Mu-type opioid receptor (Homo sapiens).
MEASURED PARAMETER: EC50 (µM)

[[record]]
molecule = "OCC1(N2CCC(n3c(-c4ccc(F)c(Cl)c4)nc4ccccc43)CC2)CCCCCCC1"
target_entity = "Mu-type opioid receptor (Homo sapiens)"
measured_parameter = "EC50"
qualifier = "="
reported = 1.22

[[record]]
molecule = "OCC1(N2CCC(n3c(-c4ccc(Cl)cc4)nc4ccccc43)CC2)CCCCCCC1"
target_entity = "Mu-type opioid receptor (Homo sapiens)"
measured_parameter = "EC50"
qualifier = ">"
reported = 10

[[record]]
molecule = "OCC1(N2CCC(n3c(N4CC5CNCC5C4)nc4ccccc43)CC2)CCCCCCC1 (centres undefined)"
target_entity = "Mu-type opioid receptor (Homo sapiens)"
measured_parameter = "EC50"
qualifier = "="
reported = 3.5

[[record]]
molecule = "CC1CN(c2nc3ccccc3n2C2CCN(C3(CO)CCCCCCC3)CC2)CCN1 (centres undefined)"
target_entity = "Mu-type opioid receptor (Homo sapiens)"
measured_parameter = "EC50"
qualifier = "="
reported = 1.77


----------
TARGET ENTITY: L-type calcium channel, dihydropyridine site (Rattus norvegicus, UniProt P22002+P27732+Q02485)
ASSAY PROTOCOL: Inhibition of rat L-type calcium channel dihydropyridine site at 1 uM relative to control
MEASURED PARAMETER: inhibition at 1 µM

[[record]]
compound = "OCC1(N2CCC(n3c(N4CC5CNCC5C4)nc4ccccc43)CC2)CCCCCCC1 (stereo unspecified)"
measured_parameter = "inhibition at 1 µM"
reported = "< 10%"


----------
TARGET ENTITY: Glutamate NMDA receptor
ASSAY PROTOCOL: Inhibition of rat NMDA receptor
MEASURED PARAMETER: IC50 (µM)

[[record]]
entry_smiles = "O=C(O)[C@@H]1C[C@H](CP(=O)(O)O)CCN1"
measured_parameter = "IC50"
reported = 1.62


----------
TARGET ENTITY: L-type calcium channel, verapamil site (Rattus norvegicus, UniProt P22002+P27732+Q02485)
ASSAY PROTOCOL: Inhibition of rat L-type calcium channel verapamil site at 1 uM relative to control
MEASURED PARAMETER: inhibition at 1 µM

[[record]]
compound = "OCC1(N2CCC(n3c(N4CC5CNCC5C4)nc4ccccc43)CC2)CCCCCCC1 (stereo unspecified)"
reported = "< 10%"


----------
TARGET ENTITY: Tyrosine 3-monooxygenase (Rattus norvegicus)
Sequence (P04177 whole entry): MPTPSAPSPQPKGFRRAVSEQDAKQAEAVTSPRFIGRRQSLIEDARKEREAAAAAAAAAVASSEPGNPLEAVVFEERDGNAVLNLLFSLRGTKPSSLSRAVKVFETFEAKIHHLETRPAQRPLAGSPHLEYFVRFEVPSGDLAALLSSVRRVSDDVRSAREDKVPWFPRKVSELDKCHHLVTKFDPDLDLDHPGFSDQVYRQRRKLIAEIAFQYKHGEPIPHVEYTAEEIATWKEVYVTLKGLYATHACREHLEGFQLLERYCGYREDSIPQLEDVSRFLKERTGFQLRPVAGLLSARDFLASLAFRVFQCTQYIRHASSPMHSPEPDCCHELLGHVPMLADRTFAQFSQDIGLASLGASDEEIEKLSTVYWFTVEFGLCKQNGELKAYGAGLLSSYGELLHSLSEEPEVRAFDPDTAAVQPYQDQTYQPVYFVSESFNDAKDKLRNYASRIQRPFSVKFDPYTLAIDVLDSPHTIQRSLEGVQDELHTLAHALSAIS
ASSAY PROTOCOL: Inhibition of rat tyrosine hydroxylase
MEASURED PARAMETER: IC50 (nM)

[[record]]
compound = "N[C@@H](Cc1ccc(O)c(I)c1)C(=O)O [IOTYROSINE]"
measured_parameter = "IC50"
reported = 1.4


----------
pEC50: −log10 of the molar value.
This document collects pEC50 values reported for Nociceptin receptor (Homo sapiens, UniProt P41146).
MEASURED PARAMETER: pEC50

[[record]]
molecule = "OCC1(N2CCC(n3c(N4CC5CNCC5C4)nc4ccccc43)CC2)CCCCCCC1 (configuration not stated)"
reported = 7.92

[[record]]
molecule = "CN1CCN(c2nc3ccccc3n2C2CCN(C3(CO)CCCCCCC3)CC2)CC1"
reported = 7.77

[[record]]
molecule = "OCC1(N2CCC(n3c(-c4ccc(F)c(Cl)c4)nc4ccccc43)CC2)CCCCC1"
reported = 7.28

[[record]]
molecule = "CC1(C)CN(c2nc3ccccc3n2C2CCN(C3(CO)CCCCCCC3)CC2)CCN1"
reported = 7.64

[[record]]
molecule = "OCC1(N2CCC(n3c(-c4ccc(F)c(Cl)c4)nc4ccccc43)CC2)CCCCCCC1"
reported = 8.05

[[record]]
molecule = "CC1CN(c2nc3ccccc3n2C2CCN(C3(CO)CCCCCCC3)CC2)CCN1 (configuration not stated)"
reported = 7.42

[[record]]
molecule = "OCC1(N2CCC(n3c(-c4ccc(Cl)cc4)nc4ccccc43)CC2)CCCCCCC1"
reported = 8.04


----------
ASSAY PROTOCOL: Inhibition of rat GABA transporter
MEASURED PARAMETER: IC50 (µM)

[[record]]
compound = "O=C(O)C1CCCNC1 (stereo unspecified) [NIPECOTIC ACID]"
reported = 7.17


----------
This document collects pEC50 values reported for Kappa-type opioid receptor (Homo sapiens).
pEC50: −log10 of the molar value.
MEASURED PARAMETER: pEC50

[[record]]
compound = "CN1CCN(c2nc3ccccc3n2C2CCN(C3(CO)CCCCCCC3)CC2)CC1"
reported = 7.74

[[record]]
compound = "CC1CN(c2nc3ccccc3n2C2CCN(C3(CO)CCCCCCC3)CC2)CCN1 (configuration not stated)"
reported = 6.44


----------
ASSAY PROTOCOL: Drug level Sprague-Dawley rat spinal cord at 10 mg/kg, sc after […]
Format: ADME, organism-based
Parameters: dose 10 mg/kg, route subcutaneous
MEASUREMENT PARAMETERS: read-out: Drug uptake
MEASURED PARAMETER: concentration at […] (ng/mL)

[[record]]
compound = "OCC1(N2CCC(n3c(N4CC5CNCC5C4)nc4ccccc43)CC2)CCCCCCC1 (stereo unspecified)"
measured_parameter = "concentration at […]"
unit_tag = "ng/mL"
reported = 63


----------
ASSAY PROTOCOL: Drug level Sprague-Dawley rat plasma at 10 mg/kg, sc after […]
Type: ADME, organism-based
Set-up: dose 10 mg/kg, route subcutaneous
MEASUREMENT PARAMETERS: read-out: Drug uptake
MEASURED PARAMETER: concentration at […] (ng/mL)

[[record]]
compound = "OCC1(N2CCC(n3c(N4CC5CNCC5C4)nc4ccccc43)CC2)CCCCCCC1 (stereo unspecified)"
reported = 504


----------
ASSAY PROTOCOL: Inhibition of rat 5-HT receptor
MEASURED PARAMETER: IC50 (nM)

[[record]]
entry_smiles = "NCCc1c[nH]c2ccc(O)cc12"
measured_parameter = "IC50"
unit_tag = "nM"
reported = 2.7


----------
TARGET ENTITY: UniProtKB P41146
pKi: −log10 of the molar value.
MEASURED PARAMETER: pKi

[[record]]
compound = "CC1CN(c2nc3ccccc3n2C2CCN(C3(CO)CCCCCCC3)CC2)CCN1 (stereo not drawn)"
qualifier = "="
reported = 9.02

[[record]]
compound = "OCC1(N2CCC(n3c(N4CC5CNCC5C4)nc4ccccc43)CC2)CCCCCCC1 (stereo not drawn)"
qualifier = "="
reported = 8.84

[[record]]
compound = "OCC1(N2CCC(n3c(-c4ccc(Cl)cc4)nc4ccccc43)CC2)CCCCCCC1"
qualifier = "="
reported = 9.82

[[record]]
compound = "OCC1(N2CCC(n3c(-c4ccc(F)c(Cl)c4)nc4ccccc43)CC2)CCCCC1"
qualifier = "="
reported = 8.37

[[record]]
compound = "CN1CCN(c2nc3ccccc3n2C2CCN(C3(CO)CCCCCCC3)CC2)CC1"
qualifier = "="
reported = 8.37

[[record]]
compound = "OCC1(N2CCC(n3c(-c4ccc(F)c(Cl)c4)nc4ccccc43)CC2)CCCCCCC1"
qualifier = "="
reported = 9.14

[[record]]
compound = "CC1(C)CN(c2nc3ccccc3n2C2CCN(C3(CO)CCCCCCC3)CC2)CCN1"
qualifier = "="
reported = 8.34

[[record]]
compound = "CN1CCN(c2nc3ccccc3n2C2CCN(C3(C(=O)O)CCCCCCC3)CC2)CC1"
qualifier = "<"
reported = 6.60


----------
ASSAY PROTOCOL: Drug level Sprague-Dawley rat spinal cord at 10 mg/kg, sc after 0.5 hrs
Format: ADME, organism-based
Design: dose 10 mg/kg, route subcutaneous
MEASUREMENT PARAMETERS: read-out: Drug uptake
MEASURED PARAMETER: concentration at 0.5 h

[[record]]
compound = "OCC1(N2CCC(n3c(N4CC5CNCC5C4)nc4ccccc43)CC2)CCCCCCC1 (stereo unspecified)"
reported = "48 ng/mL"


----------
ASSAY PROTOCOL: Drug level Sprague-Dawley rat plasma at 10 mg/kg, sc after 0.5 hrs
Assay type: ADME, organism-based
Design: dose 10 mg/kg, route subcutaneous
MEASUREMENT PARAMETERS: read-out: Drug uptake
MEASURED PARAMETER: concentration at 0.5 h (ng/mL)

[[record]]
molecule = "OCC1(N2CCC(n3c(N4CC5CNCC5C4)nc4ccccc43)CC2)CCCCCCC1 (stereo unspecified)"
reported = 600


----------
TARGET ENTITY: Voltage-gated inwardly rectifying potassium channel KCNH2 (Homo sapiens, UniProt Q12809)
Sequence (Q12809 whole entry): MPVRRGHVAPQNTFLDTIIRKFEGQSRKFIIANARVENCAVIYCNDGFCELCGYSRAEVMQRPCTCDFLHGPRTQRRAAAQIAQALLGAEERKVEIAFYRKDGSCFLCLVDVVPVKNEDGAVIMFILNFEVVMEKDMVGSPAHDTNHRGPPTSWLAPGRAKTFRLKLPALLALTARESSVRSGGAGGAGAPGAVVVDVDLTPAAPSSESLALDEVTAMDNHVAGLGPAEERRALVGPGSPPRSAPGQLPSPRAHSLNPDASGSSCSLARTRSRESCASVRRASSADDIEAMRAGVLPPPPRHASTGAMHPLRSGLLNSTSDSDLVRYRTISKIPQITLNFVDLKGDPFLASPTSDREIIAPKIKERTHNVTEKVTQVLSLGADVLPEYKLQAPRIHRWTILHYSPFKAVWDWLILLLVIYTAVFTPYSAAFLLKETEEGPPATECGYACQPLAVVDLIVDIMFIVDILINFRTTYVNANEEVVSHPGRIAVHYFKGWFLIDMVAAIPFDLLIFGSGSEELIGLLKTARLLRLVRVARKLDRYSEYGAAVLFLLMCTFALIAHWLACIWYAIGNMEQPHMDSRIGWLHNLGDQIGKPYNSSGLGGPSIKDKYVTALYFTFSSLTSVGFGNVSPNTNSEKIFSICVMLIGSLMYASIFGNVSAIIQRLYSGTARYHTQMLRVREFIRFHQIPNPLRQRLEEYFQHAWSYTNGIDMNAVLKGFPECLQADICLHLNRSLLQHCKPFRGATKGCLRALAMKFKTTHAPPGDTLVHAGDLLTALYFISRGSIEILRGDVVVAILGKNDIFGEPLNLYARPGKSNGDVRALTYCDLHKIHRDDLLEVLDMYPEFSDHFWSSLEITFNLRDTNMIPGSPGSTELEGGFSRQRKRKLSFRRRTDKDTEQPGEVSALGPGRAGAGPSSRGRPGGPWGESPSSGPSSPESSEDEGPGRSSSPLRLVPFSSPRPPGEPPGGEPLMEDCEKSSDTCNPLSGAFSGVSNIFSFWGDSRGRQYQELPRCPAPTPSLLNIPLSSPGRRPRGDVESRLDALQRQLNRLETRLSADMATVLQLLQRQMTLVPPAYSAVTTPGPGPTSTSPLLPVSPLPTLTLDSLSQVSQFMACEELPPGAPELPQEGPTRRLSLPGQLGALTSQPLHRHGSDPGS
pKi: −log10 of the molar value.
MEASURED PARAMETER: pKi

[[record]]
compound = "OCC1(N2CCC(n3c(N4CC5CNCC5C4)nc4ccccc43)CC2)CCCCCCC1 (stereo unspecified)"
reported = 5.43


----------
TARGET ENTITY: monoamine oxidase B (Homo sapiens, UniProt P27338)
Sequence (P27338 whole entry): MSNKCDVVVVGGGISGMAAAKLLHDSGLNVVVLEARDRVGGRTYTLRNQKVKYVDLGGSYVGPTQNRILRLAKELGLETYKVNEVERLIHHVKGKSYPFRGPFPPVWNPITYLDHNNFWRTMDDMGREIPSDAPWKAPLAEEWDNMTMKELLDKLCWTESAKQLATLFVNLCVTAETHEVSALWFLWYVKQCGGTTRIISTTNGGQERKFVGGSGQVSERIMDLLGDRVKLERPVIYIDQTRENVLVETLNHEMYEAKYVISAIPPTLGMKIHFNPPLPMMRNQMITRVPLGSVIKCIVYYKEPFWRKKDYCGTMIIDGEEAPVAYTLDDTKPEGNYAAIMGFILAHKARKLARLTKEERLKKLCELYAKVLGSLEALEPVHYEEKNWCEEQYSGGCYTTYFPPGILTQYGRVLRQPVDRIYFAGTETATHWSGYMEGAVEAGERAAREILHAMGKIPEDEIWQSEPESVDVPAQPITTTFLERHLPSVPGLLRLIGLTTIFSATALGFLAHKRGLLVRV
ASSAY PROTOCOL: Inhibition of human monoamine oxidase B at 1 uM relative to control
MEASURED PARAMETER: inhibition at 1 µM

[[record]]
compound = "OCC1(N2CCC(n3c(N4CC5CNCC5C4)nc4ccccc43)CC2)CCCCCCC1 (stereo unspecified)"
reported = "< 10%"

